Provenance of the data: patent US7112586B2

- measured-target: Motilin Receptor (Oryctolagus cuniculus)
- Construct: The muscle tissue was homogenized in 10 volumes of 50 mM Tris-Cl; from tissue; host or cells: rabbit colon smooth muscle, crude membrane homogenate
- protocol-text: Motilin receptor binding, rabbit colon membranes, 125I porcine motilin
- Design: dose or concentration left out as unconfirmed
- protocol-conditions: rabbit colon membranes
readout-kind: Rabbit Colon % Inh (%)

The following compounds have reported results that may help.
                                   compound  recorded_measurement
0  O=C(c1ccc(F)cc1)N(CC1CCCC(N(Cc2ccccc2)C(=O)c2ccc3ccccc3c2)C1)c1cccc(OCCN2CCOCC2)c1 (stereo not shown)                    49
1  COc1cccc(C(=O)NC2CCCC(CN(C(=O)Nc3ccccc3)c3cccc(OCCN4CCOCC4)c3)C2)c1 (stereo not shown)                    26

P. O=C(N[C@@H](Cc1ccccc1)C(=O)N(Cc1ccc(F)cc1)c1cccc(OCCN2CCOCC2)c1)C(c1ccccc1)c1ccccc1
Q. O=C(CCCC(=O)N(Cc1ccc(F)cc1)c1ccc(OCCN2CCCC2)cc1)N(CCc1ccccc1)Cc1ccccc1
Dear colleague, could you let me know whether P or Q has the lower recorded Rabbit Colon % Inh? Thanks. Returns: label corresponding to the selected item. P
(P: 6%, Q: 27%)

A. O=C1CCCN1CCOc1cccc(N(Cc2ccc(F)cc2)C(=O)CCCC(=O)N(CCc2ccccc2)Cc2ccccc2)c1
B. O=C(c1ccc(F)cc1)N(CC1CCCC(N2C(=O)C3CC3C2=O)C1)c1cccc(OCCN2CCOCC2)c1 (stereo not shown)
Between the entries labelled A and B , which has a larger Rabbit Colon % Inh value on record? Write down the label of the entry you select. A

###

- measured-target: motilin receptor preparation (Human antrum tissue) (Homo sapiens)
- Construct: Human antrum tissue from Analytical Biological Services (Wilmington, Del.) was prepared as a motilin receptor preparation; tissue Analytical Biological Services (Wilmington, Del.); host or cells: human antrum (stomach) muscle tissue, crude membrane homogenate
- Sequence (O43193 whole entry): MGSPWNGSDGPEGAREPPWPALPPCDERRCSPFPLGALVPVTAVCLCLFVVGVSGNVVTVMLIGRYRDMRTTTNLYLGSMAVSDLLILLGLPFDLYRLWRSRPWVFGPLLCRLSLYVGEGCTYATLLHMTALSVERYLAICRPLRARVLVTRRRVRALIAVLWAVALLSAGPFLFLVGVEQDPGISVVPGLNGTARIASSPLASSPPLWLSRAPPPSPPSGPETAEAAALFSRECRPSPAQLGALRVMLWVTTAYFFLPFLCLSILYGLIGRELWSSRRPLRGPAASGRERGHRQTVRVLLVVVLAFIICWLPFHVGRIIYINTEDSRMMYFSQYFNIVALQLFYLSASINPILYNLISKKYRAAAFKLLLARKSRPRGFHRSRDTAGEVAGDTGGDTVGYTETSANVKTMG
- protocol-text: 125I-motilin binding to human antral stomach membranes
- protocol-conditions: human antrum membranes
pIC50: −log10 of the molar value.
readout-kind: pIC50

A selection of reference data follows.
molecule	pIC50
CC(C)(C)C(=O)N(Cc1ccc(F)c(F)c1)C1CCCC(CN(C(=O)c2ccc(F)cc2)c2cccc(OCCN3CCCC3)c2)C1 (stereo not shown) [compound 228]	7.60
CC(C)(C)C(=O)N(Cc1cccc(Cl)c1)C1CCCC(CN(C(=O)c2ccc(F)cc2)c2cccc(OCCN3CCCC3)c2)C1 (stereo not shown) [compound 226]	7.49

a. CC(C)(C)C(=O)N(Cc1ccc(Cl)c(Cl)c1)C1CCCC(CN(C(=O)c2ccc(F)cc2)c2cccc(OCCN3CCCC3)c2)C1 (stereo not shown) [compound 227]
b. O=C(c1ccc(F)cc1)N(CC1CCC(N(Cc2cccc([N+](=O)[O-])c2)C(=O)C(Cl)(Cl)Cl)C1)c1cccc(OCCN2CCCC2)c1 (stereo not shown) [compound 219]
Looking at a and b , which one comes out lower in pIC50 terms? Answer with the label corresponding to your selection. a

###

- measured-target: Motilin Receptor (Oryctolagus cuniculus, UniProt G1T803)
- Construct: The muscle tissue was homogenized in 10 volumes of 50 mM Tris-Cl; from tissue; host or cells: rabbit colon smooth muscle, crude membrane homogenate
- Sequence (G1T803 1-400): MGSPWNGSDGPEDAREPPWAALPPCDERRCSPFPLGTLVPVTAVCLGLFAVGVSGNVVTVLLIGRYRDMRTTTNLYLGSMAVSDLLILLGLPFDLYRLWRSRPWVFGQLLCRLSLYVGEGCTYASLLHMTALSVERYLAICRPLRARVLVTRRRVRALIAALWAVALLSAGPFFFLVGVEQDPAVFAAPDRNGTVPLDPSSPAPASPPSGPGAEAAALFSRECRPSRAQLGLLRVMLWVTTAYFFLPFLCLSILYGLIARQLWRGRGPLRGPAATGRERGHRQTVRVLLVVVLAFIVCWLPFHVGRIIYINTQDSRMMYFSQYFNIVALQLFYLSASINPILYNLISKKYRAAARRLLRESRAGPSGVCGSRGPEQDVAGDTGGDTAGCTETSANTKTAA
- protocol-text: Motilin receptor binding, rabbit colon membranes, 125I porcine motilin
- Design: dose or concentration left out as unconfirmed
- protocol-conditions: rabbit colon membranes
readout-kind: Rabbit Colon % Inh (%)

1. COc1cccc(C(=O)N(Cc2cccc([N+](=O)[O-])c2)C2CCC(CN(C(=O)Nc3ccccc3)c3cccc(OCCN4CCOCC4)c3)CC2)c1 (stereo not shown)
2. O=C(c1ccc(F)cc1)N(CC1CCCC(N(Cc2ccccc2)C(=O)c2ccc(-c3ccccc3)cc2)C1)c1cccc(OCCN2CCOCC2)c1 (stereo not shown)
3. CCN(Cc1ccc(C)cc1)C(=O)CCCN(C(=O)c1ccc(F)cc1)c1cccc(OCCN2CCOCC2)c1
From the records above, write out the order of decreasing Rabbit Colon % Inh. Sort and list the labels as requested. 2, 3, 1
